# method_description: Cytotoxicity assay in cells stably expressing PARS1 mutant
# condition_notes: human, Cytotoxicity, % of control, average, WI-26 VA4 Flag-PARS1 FA/EA/RL; 10 nM
quantity_name: activity at 72 h, 0.01 µM (%)
Expressed in %, but write only the number.

Task: Need activity at 72 h, 0.01 µM of O[C@H]1CCCN[C@@H]1CCCn1cnc2c(Cl)c(Cl)ccc21 [DWN12088] , thanks.
Output: 110

---

# method_description: Cytotoxicity assay in cells stably expressing EV
# condition_notes: human, Cytotoxicity, % of control, average, WI-26 VA4 EV; 1000 nM
quantity_name: activity at 72 h, 1 µM

Task: Need activity at 72 h, 1 µM of `O[C@H]1CCCN[C@@H]1CCCn1cnc2c(Cl)c(Cl)ccc21` , thanks.
Output: 118%

# credit: paper PMC10331583
